These measurements were taken from patent US12617779B2.

Experiment: Evaluation of conversion rate to active form in buffer solution (Experimental Example 1)
Type: physicochemical
Conditions: pH7.0, 3 hr
Mark T for reported Residual rate of 20% or greater; mark F for anything smaller.

INSERT INTO measurements (compound, label) VALUES
  ('CN1CC[C@H](c2c(O)cc(O)c3c(=O)cc(-c4ccccc4Cl)oc23)[C@H](OC(=O)CN)C1 [Comparative Example 8, reference compound]', 'F'),
  ('CCNC(=O)O[C@@H]1CN(C)CC[C@@H]1c1c(O)cc(O)c2c(=O)cc(-c3ccccc3Cl)oc12 [Comparative Example 4, reference compound]', 'T'),
  ('CN1CC[C@H](c2c(OC(=O)N(C)CCN)cc(O)c3c(=O)cc(-c4ccccc4Cl)oc23)[C@H](O)C1 [Comparative Example 13, reference compound]', 'F'),
  ('C[C@H](N)C(=O)O[C@@H]1CN(C)CC[C@@H]1c1c(O)cc(O)c2c(=O)cc(-c3ccccc3Cl)oc12 [Comparative Example 7, reference compound]', 'F'),
  ('CNCCN(C)C(=O)Oc1cc(O)c2c(=O)cc(-c3ccccc3Cl)oc2c1[C@H]1CCN(C)C[C@H]1O [Comparative Example 14, reference compound]', 'F'),
  ('CC(C)[C@H](N)C(=O)O[C@@H]1CN(C)CC[C@@H]1c1c(O)cc(O)c2c(=O)cc(-c3ccccc3Cl)oc12 [Comparative Example 10, reference compound]', 'T');
